The reported numbers originate from the supplement of paper PMC10126150.

Each entry below carries its recorded switch fluorescence ratio.
# Test system: ATP;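 note: ATP exposure 15 min at 22 °C before imaging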
# protocol: switch fluorescence ratio, 500 uM ATP over buffer (Cy3 cluster intensity, sum of 5 cycles each) (fold (ratio)); higher = stronger signal-on switching upon ATP binding; sequences stand for … in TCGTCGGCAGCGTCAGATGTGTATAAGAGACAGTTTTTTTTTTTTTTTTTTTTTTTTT…TC
# assay.setup: aptamer strand: ATP DNA aptamer (quencher-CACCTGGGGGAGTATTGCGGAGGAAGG + anchor), 100 nM annealed; ATP concentration: 500 uM
The answer should be a number; do not append a unit.

Please provide the recorded switch fluorescence ratio for `GGGCCGGGGC` , tested on ATP. 1.01

Queued: `AATTGGTCCT` 0.986

Entry to check: `AAATCATTAA` 1.02

Then what about the sequence `GAGGGTATAG` ? 1.02

What about `TCGTTGATGT` ? 1

Subsequent entry: `GGGGCGTGGG` 0.963

Can you check `GATAGACGCA` next? 1.1

Can you handle `GAGGGAAAGG` next? 1.02

Try the sequence `AGGGTTGACT` 0.964

Now the sequence `CGCTATTATT` 1.05

// next record `GCGGATGCGT` 1.03

What about this sequence? `CCGGGGGGCG` 0.976

---

# System: ATP;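 note: ATP exposure 15 min at 22 °C before imaging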
# protocol: switch fluorescence ratio, 500 uM ATP over buffer (Cy3 cluster intensity, sum of 5 cycles each) (fold (ratio)); higher = stronger signal-on switching upon ATP binding; sequences stand for … in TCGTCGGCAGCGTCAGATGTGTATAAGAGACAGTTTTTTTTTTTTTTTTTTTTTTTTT…TC
# assay.setup: aptamer strand: ATP DNA aptamer (quencher-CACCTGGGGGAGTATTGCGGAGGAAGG + anchor), 100 nM annealed; ATP concentration: 500 uM
Returns Y if the recorded switch fluorescence ratio is greater than or equal to 1, and N otherwise.

- TTTAGTTGTG: N

Reported switch fluorescence ratio at or above 1? `GGACATTTAG` Y

Thanks! And `CTGAGTATGC` ? Y

---

Property: switch fluorescence ratio; scope: individual sequences
# Test system: ATP;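 note: ATP exposure 15 min at 22 °C before imaging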
# protocol: switch fluorescence ratio, 500 uM ATP over buffer (Cy3 cluster intensity, sum of 5 cycles each) (fold (ratio)); higher = stronger signal-on switching upon ATP binding; sequences stand for … in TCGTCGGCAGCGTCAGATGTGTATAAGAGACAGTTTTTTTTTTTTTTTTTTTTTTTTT…TC
# assay.setup: aptamer strand: ATP DNA aptamer (quencher-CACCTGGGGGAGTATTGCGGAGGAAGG + anchor), 100 nM annealed; ATP concentration: 500 uM
Write the number on its own, no unit after it.

* GGAGGTTGTG | 0.987
* AGATATTCGG | 0.984
* TTAAAGGGGA | 1.04
* AGAAAAGTGT | 1.03
* CCATATTCTC | 1.02
* CTGGACGCTG | 1.01
* TGCAAGTTCG | 0.969
* TTTTACCGT | 0.996

I'd like to know its switch fluorescence ratio. The sequence in question is `TTTTTTGAAC` 1.01

// next record `TTACTCCTTT` 1

Next sequence up: `TGCGGGTAGG` 1.03

Another sequence to check: `ACATCGTTCT` 0.977

Here is the next sequence: `TCCACCGGCT` 1.03

Again, but for `TGGGCCCGGC` 1.02

Next: `CGCGTTCGGA` 1.04

And the next one, `ATTATGGCTG` ? 1.07

Next up: `TCCTCATGGT` 1

Would you kindly repeat that for `TGTTTGTATC` ? 1.01

Try this sequence too: `TGTTTGATGT` 0.983

Check `CCTATTGTGG` too. 0.993

Another: `TATATTGGGG` 0.991

Can you check `ATTTTTTTCT` next? 1.04

`CGCTATTATA` , same question. 1.09

Try this sequence too: `CGGCGGGGGA` 1.04
